test system: DU-145; assay: MTS assay (cytotoxicity); type: cell-based, human; conditions: DU-145 (prostate), 72 h exposure in the dark, MTS assay, mean of three experiments
endpoint-name: pIC50
Kindly note that pIC50 refers to -log10 of the concentration in mol/L and answer with the value alone.

Consider the reported pIC50 for these compounds:
O=C(O)CCCCCNc1c(F)c(F)c(C2=C3C=CC4=[N+]3[Ga-]35[n]6c2ccc6C(c2c(F)c(F)c(F)c(F)c2F)=c2ccc([n]23)=C(c2c(F)c(F)c(F)c(F)c2F)c2ccc4[n]25)c(F)c1F (stereo not shown)    4.75
Fc1c(F)c(F)c(C2=C3C=CC4=[N+]3[Ga-]35[n]6c2ccc6C(c2c(F)c(F)c(F)c(F)c2F)=c2ccc([n]23)=C(c2c(F)c(F)c(F)c(F)c2F)c2ccc4[n]25)c(F)c1F (stereo not shown)    3.87
O=S(=O)(O)C1=CC2=C(c3c(F)c(F)c(F)c(F)c3F)c3ccc4[n]3[Ga-]35[n]6c(cc(S(=O)(=O)O)c6C(c6c(F)c(F)c(F)c(F)c6F)=c6ccc([n]63)=C4c3c(F)c(F)c(F)c(F)c3F)C1=[N+]25 (stereo not shown)    3.80

# next compound below
Let me know recorded pIC50 for O=C(O)C1=CC2=[N+]3C1=C(c1c(F)c(F)c(F)c(F)c1F)c1ccc4[n]1[Ga-]31[n]3c(ccc32)C(c2c(F)c(F)c(F)c(F)c2F)=c2ccc([n]21)=C4c1c(F)c(F)c(F)c(F)c1F (stereo not shown) , thanks.
4.89
